test: physchem; conditions: aqueous with cosolvent or surfactant or cyclodextrin, kinetic from dmso stock
assay metric: solubility

Please give the measured solubility for this molecule: CC1=C(/C=C/C(C)=C/C=C/C(C)=C/C=C/C=C(C)/C=C/C=C(C)/C=C/C2=C(C)CCCC2(C)C)C(C)(C)CCC1
~50 µg/mL
